Provide the recorded TGI for the entries that follow.
system: NCI-H522 lung; assay: NCI tumour cell line growth inhibition, 48 h
The answer is to be given in µM; state only the numeric part.

Here `O=C1Nc2ccc(Cl)cc2/C1=C\c1c(-c2ccc(Cl)cc2)nc2sc(C3CC3)nn12` was tested on NCI-H522 lung, and its TGI came to 26.3

Value (TGI, NCI-H522 lung) for record `CCOC(=O)[C@@H](C)C[C@H](Cc1ccccc1)NC(=O)c1csc([C@@H](C[C@H](C(C)C)N(C)C(=O)[C@@H](NC(=O)[C@H]2CCCCN2C)C(C)(C)CC)OC(C)=O)n1` = 0.0397

Assay NCI-H522 lung, sample `COc1ccc(-c2cc(-c3ccc(Nc4nc(Nc5ccccc5)nc(Nc5ccc(Cl)cc5)n4)cc3)nc(N)n2)cc1` , TGI read: 27.1

The reported NCI-H522 lung TGI of `C=C1C(=O)O[C@H]2[C@H]1CC/C(COC(=O)c1cc(OC)c(OC)c(OC)c1)=C\CC[C@@]1(C)O[C@@H]21` is 2.25

Summary: CC(C)/C=C1\CCC(CN(C)C)C1=O (stereo unspecified) , NCI-H522 lung, TGI = 0.22

Given the compound `FC(F)(F)c1ccc2c(c1)N(CCCNCCN1CCOCC1)c1ccccc1S2` and test system NCI-H522 lung, the measured TGI is 30.6

The compound `CCOC(=O)CSc1cc(Cl)c(C)cc1S(=O)(=O)/N=C(/N=C/c1ccc([N+](=O)[O-])s1)NNC` , tested on NCI-H522 lung, showed TGI of 79.7

The values you see were collected from PubChem BioAssay (NCI).
